Here, each record is paired with measured HEKBlue TGFβ blocking IC50 data.
Target: T1, human TGFβ2, mature receptor-binding domain (human, UniProt P09858 303-414 (pig entry), The mature TGFβ2 is a disulfide-linked homodimer of this 112-residue chain. The 4A11 epitope spans both monomers (p-1207).)
T1 sequence: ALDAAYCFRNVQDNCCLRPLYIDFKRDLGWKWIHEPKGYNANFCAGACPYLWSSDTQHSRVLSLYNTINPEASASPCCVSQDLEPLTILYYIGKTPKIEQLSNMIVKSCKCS
Test: cell-based or functional assay
Number only, in nM; omit the unit.

Illustrative cases are given below, each with its answer.
h6F12.v3 (antibody, human IgG1, kappa, N297G, V domains shown) VH: EVTLKESGPVLVKPTETLTLTCTVSGFSLTTYNVHWVRQPPGKALEWMGLIWNTGGTRYNSALKSRLTISKDTSKSQVVLTMTNMDPVDTATYYCARDPVPNKWHFDFWGPGTLVTVSS VL: EIVMTQSPATLSVSPGERATLSCLASEDIYSNLAWYQQKPGQSPRLLIYDARSLQDGVPARFSGSESGPEYTLTISSLQSEDFAVYFCQQHHAYPFTFGQGTKVEIKR : 0.005
6F12 (antibody, V domains shown, anti-TGFβ2; called rat and rabbit in different places; also called rat 6F12; r6F12) VH: QVQLKESGPGLVQPSQTLSLTCTVSGFSLTTYNVHWVRQPPGKGLEWMGLIWNTGGTRYNSALKSRLSISKDTSKSQVFLRMNSLQTEDTATYYCARDPVPNKWHFDFWGPGTMVTVSS VL: DIQMTQSPASLSASLGETVTIECLASEDIYSNLAWYQQKPGKSPQLLIYDARSLQDGVPSRFSGSESGPQYSLEINSLQSEDAVTYFCQQHHAYPFTFGSGTKLEIK : 0.004
h6F12.v2 (antibody, human IgG1, kappa, N297G, V domains shown) VH: EVQLQESGPGLVKPSETLSLTCTVSGFSLTTYNVHWVRQPPGKGLEWMGLIWNTGGTRYNSALKSRLTISKDTSKSQVSLKLSSVTAADTAVYYCARDPVPNKWHFDFWGPGTLVTVSS VL: DIQMTQSPSTLSASVGDRVTITCLASEDIYSNLAWYQQKPGKSPKLLIYDARSLQDGVPSRFSGSESGPEYTLTISSLQPDDFATYFCQQHHAYPFTFGQGTKVEIKR : 0.01
h6F12.v1 (antibody, human IgG1, kappa, N297G, V domains shown) VH: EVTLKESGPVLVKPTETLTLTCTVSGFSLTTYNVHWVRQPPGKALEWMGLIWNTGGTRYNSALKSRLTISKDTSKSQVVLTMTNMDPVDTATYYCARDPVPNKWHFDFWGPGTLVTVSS VL: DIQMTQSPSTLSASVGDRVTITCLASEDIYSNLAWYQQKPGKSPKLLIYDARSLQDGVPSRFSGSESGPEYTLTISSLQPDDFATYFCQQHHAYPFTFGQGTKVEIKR : 0.02

Query :: Fill in: HEKBlue TGFβ blocking IC50 of h6F12.v4 (antibody, human IgG1, kappa, N297G, V domains shown) VH: EVQLQESGPGLVKPSETLSLTCTVSGFSLTTYNVHWVRQPPGKGLEWMGLIWNTGGTRYNSALKSRLTISKDTSKSQVSLKLSSVTAADTAVYYCARDPVPNKWHFDFWGPGTLVTVSS VL: EIVMTQSPATLSVSPGERATLSCLASEDIYSNLAWYQQKPGQSPRLLIYDARSLQDGVPARFSGSESGPEYTLTISSLQSEDFAVYFCQQHHAYPFTFGQGTKVEIKR is ___
Result :: 0.02
